experiment-description: qHTS of TDP-43 Inhibitors; also: nearly all actives have a fitted effect of over 50% in size
assay-context: TDP-43 expressing yeast growth rescue, BacTiter-Glo, 24 h; series mostly up to 46.1 µM
About 7,200 (1.8%) of roughly 410,000 compounds were called active. Roughly 7% stayed inconclusive and do not appear here. Calls follow the shape of the dose curve; as a rule, active = well fitted activation curve with a large enough effect; inconclusive = small, poorly fitted or top-dose-only effect, or another doubt; inactive = no such curve, though single readings can be large or run the other way. The full list was thinned out, with actives kept by preference.
Labels: True = active, False = inactive

molecule	label-class
CCc1cc(C(c2ccccc2OC)N2CCOCC2)c(NC(=O)c2ccccc2)s1 (stereo not given)	True
Cc1ccccc1OCC(=O)Nc1ccc(N2CCN(C(=O)C(C)C)CC2)c(Cl)c1	True
O=C(COc1ccccc1Cl)Nc1ccc2nc(SCC(=O)N3CCCC3)sc2c1	False
CCc1nnc(SCc2nc(-c3cccc(C)c3)oc2C)c2cc3sc(C)cc3n12	False
O=C(c1ccco1)N1CCN=C1SCc1cccc(Cl)c1	False

Recorded values, source PubChem BioAssay AID652104.
